Target: T1, CRBN, Q96SW2;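 note: pooled lentiviral library of zinc finger degron-EGFP fusions in mCherry-positive Jurkat cells, FACS-sorted after compound exposure, with degron abundance counted by next-generation sequencing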
T1 chain: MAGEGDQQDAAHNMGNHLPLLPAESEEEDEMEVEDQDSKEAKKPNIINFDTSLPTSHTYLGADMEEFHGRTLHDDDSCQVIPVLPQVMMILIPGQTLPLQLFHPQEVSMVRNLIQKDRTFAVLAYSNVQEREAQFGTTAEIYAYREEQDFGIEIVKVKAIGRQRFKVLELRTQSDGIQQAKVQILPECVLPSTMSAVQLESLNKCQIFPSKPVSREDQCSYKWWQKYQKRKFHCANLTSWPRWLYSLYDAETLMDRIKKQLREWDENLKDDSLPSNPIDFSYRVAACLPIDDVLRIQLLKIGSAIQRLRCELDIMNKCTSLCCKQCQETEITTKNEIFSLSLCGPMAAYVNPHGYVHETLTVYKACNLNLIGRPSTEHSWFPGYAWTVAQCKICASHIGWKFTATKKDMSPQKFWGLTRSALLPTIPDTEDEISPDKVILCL
Test: log2 fold change of degron read counts, EGFP-low vs EGFP+ sorted cells (limma voom), compound-induced degradation; higher = more compound-induced degradation of the degron-EGFP fusion; degrons are variants of IKZF1/3 zinc finger 2; compound dose not given here
Conditions: Jurkat; 18 h; compound: compound 33 (diphenyl IMiD analogue)
The full ranking holds about 8,300 sequences; the median of “log2 fold change of degron read counts, EGFP-low vs EGFP+ sorted cells (limma voom), compound-induced degradation” is about -1.1, and the highest 2% start at about 3.2. Many of the other results were omitted from the sample, so the highest values are more common in it than they were.
For each entry below, report its log2 fold change of degron read counts value.
// response body must contain only the number

Ask: Could you share which log2 fold change of degron read counts value was measured for LKCNQCGFQCTQKGNLLRHIKL [46L_47K_49N_50Q_52G_53F_54Q_55C_67L_, Q9UKT9] ?
Result: -2.86

Ask: Could you do the same for FDCNICGAGFTQKGNLLRHIKL [46F_47D_49N_50I_52G_53A_54G_55F_67L_, Q9UKT9] , please?
Result: -0.734

Ask: Could you do the same for FICEICGRAFTQKGNLLRHIKL [46F_47I_49E_50I_52G_53R_54A_55F_67L_, Q9UKT9] , please?
Result: -1.38

Ask: Could you do the same for FMCPICGRPFTQKGNLLRHIKL [46F_47M_49P_50I_52G_53R_54P_55F_67L_, Q9UKT9] , please?
Result: 1.39

Ask: Could you do the same for FTCPICGAIFTQKGNLLRHIKL [46F_47T_49P_50I_52G_53A_54I_55F_67L_, Q9UKT9] , please?
Result: 2.33

Ask: Could you do the same for FLCNQCGRTFTQKGNLLRHIKL [46F_47L_49N_50Q_52G_53R_54T_55F_67L_, Q9UKT9] , please?
Result: -3.37

Where do the numbers come from? From the supplement of paper PMC12645437.
